Just for reference, ChEMBL document CHEMBL1671668 is where these values come from.

assay: Apparent oral clearance in HIV-1 infected children at 12 mg/kg, po administered once daily by HPLC; format: ADME, organism-based; set-up: dose 12 mg/kg, route oral; details: human, in vivo

>  <Compound>
O=C1Nc2ccc(Cl)cc2[C@@](C#CC2CC2)(C(F)(F)F)O1 [EFAVIRENZ]

>  <CL/F / mL/min/kg>
3.17

$$$$

###

tested on: Homo sapiens; assay: AUC (0 to t) in HIV-1 infected children at 12 mg/kg, po administered once daily by HPLC; type: ADME, organism-based, Plasma; set-up: dose 12 mg/kg, route oral; conditions: in vivo
Readout Label: AUC (ng·h/mL)

>  <Compound>
O=C1Nc2ccc(Cl)cc2[C@@](C#CC2CC2)(C(F)(F)F)O1 [EFAVIRENZ]

>  <Target System>
Homo sapiens

>  <Numeric Value>
60000

$$$$

###

tested on: Homo sapiens; experiment: AUC (0 to t) in HIV-1 infected children at 14.4 mg/kg, po administered once daily by HPLC; type: ADME, organism-based, Plasma; design: dose 14.4 mg/kg, route oral; details: in vivo
Readout Label: AUC (µg·h/mL)

>  <Substance Smiles>
O=C1Nc2ccc(Cl)cc2[C@@](C#CC2CC2)(C(F)(F)F)O1

>  <Readout Label>
AUC

>  <Result Units>
µg·h/mL

>  <Numeric Value>
65.2

$$$$

###

experiment: Cmax in HIV-1 infected children at 10 to 15 mg/kg, po administered once daily by HPLC; type: ADME, organism-based; set-up: dose 10-15 mg/kg, route oral; details: human, in vivo
Readout Label: Cmax (ng/mL)

>  <Compound>
O=C1Nc2ccc(Cl)cc2[C@@](C#CC2CC2)(C(F)(F)F)O1 [EFAVIRENZ]

>  <Readout Label>
Cmax

>  <Numeric Value>
5520

$$$$

###

assay: Apparent oral clearance in HIV-1 infected children at 14.4 mg/kg, po administered once daily by HPLC; assay type: ADME, organism-based; set-up: dose 14.4 mg/kg, route oral; settings: human, in vivo
Readout Label: CL/F

>  <Substance Smiles>
O=C1Nc2ccc(Cl)cc2[C@@](C#CC2CC2)(C(F)(F)F)O1

>  <Readout Label>
CL/F

>  <Result>
3.5 mL/min/kg

$$$$

###

assay: Apparent oral clearance in HIV-1 infected children at 13.3 mg/kg, po administered once daily by HPLC; format: ADME, organism-based; set-up: dose 13.3 mg/kg, route oral; conditions: human, in vivo
Readout Label: CL/F (mL/min/kg)

>  <Compound>
O=C1Nc2ccc(Cl)cc2[C@@](C#CC2CC2)(C(F)(F)F)O1 [EFAVIRENZ]

>  <Numeric Value>
5

$$$$
